Property: EC50; scope: individual molecules
- Test system: T1, Angiopoietin-2 binding to Tie-2 (Homo sapiens, UniProt O15123)
- T1 construct: purchased R&D Systems, Inc. BT623 (Angiopoietin-2, biotinylated); 313-TI-100 (Tie-2/Fc)
- T1 sequence (O15123 19-496): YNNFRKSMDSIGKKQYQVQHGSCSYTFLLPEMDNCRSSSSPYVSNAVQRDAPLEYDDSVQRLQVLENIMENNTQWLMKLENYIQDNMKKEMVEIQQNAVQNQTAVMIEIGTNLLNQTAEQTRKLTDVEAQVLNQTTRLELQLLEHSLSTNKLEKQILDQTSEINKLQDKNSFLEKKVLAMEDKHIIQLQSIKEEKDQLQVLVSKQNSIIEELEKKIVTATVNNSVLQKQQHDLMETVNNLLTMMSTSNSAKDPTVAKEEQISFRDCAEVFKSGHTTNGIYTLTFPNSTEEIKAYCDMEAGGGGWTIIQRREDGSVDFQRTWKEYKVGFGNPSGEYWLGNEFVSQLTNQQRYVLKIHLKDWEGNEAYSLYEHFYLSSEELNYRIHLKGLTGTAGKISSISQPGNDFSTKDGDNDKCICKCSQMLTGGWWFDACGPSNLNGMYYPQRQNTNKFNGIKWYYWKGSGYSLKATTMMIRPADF
- Test name: Competitive binding assay (modified ELISA): inhibition of Angiopoietin-2 binding to Tie-2
- Experimental setup: potency, competitive binding of Angiopoietin-2 to Tie-2, purified mAb
Express your answer in µg/mL, writing the number without its unit.

Consider the worked cases shown below.
>>> data_value("mAb 5.86.1: fully human anti-Angiopoietin-2 monoclonal antibody, variable regions SEQ ID NO: 25-28 (antibody, listed as Homo Sapiens, listed as Homo sapiens, V domains shown) VH: QVQLVQSGAEVKKPGASVKVSCKASGYTFTGYHMYWVRQAPGQGLEWLGWINPNSGGTNYAQKFQGRVTMTRDTSISTAYMELSRLRSDDTAVYYCVRDQGIAAAGPFDYWCQGTLVTVSSA VL: DIRMTQSPSSLSASVGDRVTITCRASQRISTYLNWYQQKPGKAPKFLIYAASSLQSGVPSRFSGSGSGTDFTLTISSLQPEDFATYYCQQSYTTPFTFGPGTKVDIKR")
0.1331
>>> data_value("mAb 5.16.3: fully human anti-Angiopoietin-2 monoclonal antibody, variable regions SEQ ID NO: 13-16 (antibody, listed as Homo sapiens, listed as Homo Sapiens, V domains shown) VH: QVQLVQSGAEVKKPGASVKVSCKASGYTFTGFYMYWVRQAPGQGLEWMGWINPNSSGTNHAQKFQGRVTMTRDTSISTAYMELSRLRSDDTAVYYCARDQDIATAGPFDYWGQGTLVTVSS VL: EIVMTQSPATLSVSPGERATLSCRASQSVSSNLAWYQQKPGQAPRLLIFGASTRATGIPARFSGSGSGTEFTLTISSLQSEDFAVYYCQQYNNWWTFGRGTKVEIKR")
0.08532

// switching to the query molecule
Q: Dear colleague, please send me the reported EC50 for mAb 3.19.3: fully human anti-Angiopoietin-2 monoclonal antibody, variable regions SEQ ID NO: 5-8; also binds Angiopoietin-1 (antibody, V domains shown) VH: QVQLVESGGGVVQPGRSLRLSCAASGFTFTNYGMHWGRQAPGKGLEWVAVISHDGNNKYYVDSVKGRFTISRDNSKNTLYLQMNSLRAEDTAVYYCAREGIDFWSGLNWFDPWGQGTLVTVSSA VL: EIVLTQSPGTLSLSPGERATLSCRASQSITGSYLAWYQQKPGQAPRLLICGASSWATGIPDRFSGSGSGTDFTLTISRLEPEDFAVYYCQQYSSSPITFGQGTRLEIKR when you can.
Ans: 0.7976
